So I've got a bunch of compounds here, and I need their inhibition of growth at 100 µM values.
- System: A-431
- protocol notes: Cytotoxicity against human A431 cells at 100 uM after 72 hrs by MTT assay
- Assay type: functional
- assay context: A-431, 72 h, read-out: GI
Give the number first and the unit second.

Entry under test: N#CC(Cc1ccc[nH]1)c1ccc(Cl)c(Cl)c1 (centres undefined) . Its inhibition of growth at 100 µM was 44%

response.value for CCCCCCCCC/C=C(\C#N)c1ccc(Cl)c(Cl)c1 (field: inhibition of growth at 100 µM) = 88%

Noted for N#CC(Cc1ccc[nH]1)c1ccccc1 (centres undefined) : its inhibition of growth at 100 µM reads 20%

Quick note, inhibition of growth at 100 µM for N#C/C(=C\c1ccccc1)c1ccc(Cl)c(Cl)c1 landed at 71%

---

- System: A2780
- protocol notes: Cytotoxicity against human A2780 cells at 100 uM after 72 hrs by MTT assay
- Assay type: functional
- assay context: A2780, 72 h, read-out: GI
reported property: inhibition of growth at 100 µM (%)
Write the answer as a number in %, unit excluded.

Entry N#CC(Cc1ccc[nH]1)c1ccccc1 (centres undefined) ; inhibition of growth at 100 µM = 76

inhibition of growth at 100 µM recorded for this compound, N#CC(Cc1ccc[nH]1)c1ccc(Cl)c(Cl)c1 (centres undefined) , is 63

Item: CCCCCCCCC/C=C(\C#N)c1ccc(Cl)c(Cl)c1 | inhibition of growth at 100 µM: 24

The reported value for N#C/C(=C\c1ccccc1)c1ccc(Cl)c(Cl)c1 in terms of inhibition of growth at 100 µM is 62

---

- protocol notes: Cytotoxicity against human MCF10A cells after 72 hrs by MTT assay
- Format: cell-based, MCF-10A
reported property: GI50 at 72 h (µM)
// units = µM; emit number, no label

GET /value?item= N#C/C(=C\c1ccc[nH]1)c1ccc(Cl)c(Cl)c1 &field=GI50 at 72 h returns 28

Lab note: measured GI50 at 72 h of N#C/C(=C\c1ccc([N+](=O)[O-])cc1)c1ccc(Cl)c(Cl)c1 was 16

---

- protocol notes: Cytotoxicity against human MDA-MB-231 cells after 72 hrs by MTT assay
- Type: cell-based
reported property: GI50 at 72 h (µM)
I only need the number, in µM, no unit after it.

Memo: N#C/C(=C\c1ccc([N+](=O)[O-])cc1)c1ccc(Cl)c(Cl)c1 , reported GI50 at 72 h: 34

The reported value for N#C/C(=C\c1ccc[nH]1)c1ccc(Cl)c(Cl)c1 in terms of GI50 at 72 h is 46

---

Would you mind telling me the reported GI50 of each entry?
- Test system: HT-29
- protocol notes: Cytotoxicity against human HT-29 cells after 72 hrs by MTT assay
- Type: functional
- assay context: HT-29, 72 h
Write the value in µM as a bare number.

Input N#C/C(=C\c1ccc2ccccc2c1)c1ccc(Cl)c(Cl)c1 . Output GI50: 1.6

GET /value?item= N#C/C(=C\c1ccncc1)c1ccc(Cl)c(Cl)c1 &field=GI50 returns 18

// sample N#CC(Cc1ccc[nH]1)c1ccc([N+](=O)[O-])cc1 (stereo not given) , its GI50 was 67

The compound listed as N#C/C(=C\c1ccc[nH]1)c1ccccc1 has a reported GI50 of 41

Reported GI50 ( N#C/C(=C/c1ccc(Cl)cc1)C(=O)c1ccc[nH]1 ) = 54

So for N#CC(Cc1ccc[nH]1)c1ccc(Cl)cc1 (stereo not given) , the logged GI50 turned out to be 37

The recorded GI50 for entry Cc1ccc(/C=C(/C#N)C(=O)c2ccc[nH]2)cc1 equals 14

Sample N#C/C(=C\c1ccc[nH]1)c1ccc(Cl)c(Cl)c1 ; GI50 observed: 15

The compound identified as N#C/C(=C\c1ccc[nH]1)c1ccc(Cl)cc1 registered its GI50 at 18

For reference, reported GI50 for N#C/C(=C\c1ccc[nH]1)c1ccc([N+](=O)[O-])cc1 stands at 25

So for N#C/C(=C\c1ccc(Br)cc1)c1ccc(Cl)c(Cl)c1 , the logged GI50 turned out to be 20

Value of measured GI50 for the entry N#CC(Cc1ccc[nH]1)c1ccc(F)cc1 (stereo not given) : 73

Reported GI50 ( N#C/C(=C\c1ccc(Cl)cc1)c1ccc(Cl)c(Cl)c1 ) = 2.5

Lab book: GI50 of N#C/C(=C\c1ccc(O)cc1)c1ccc(Cl)c(Cl)c1 noted as 30

Please fill in: GI50 reported for CC(=O)Oc1ccc(/C=C(\C#N)c2ccc(Cl)c(Cl)c2)cc1 = 18

The compound listed as N#C/C(=C\c1cccc(Cl)c1)c1ccc(Cl)c(Cl)c1 has a reported GI50 of 8.4

The compound identified as CCCC/C=C(\C#N)c1ccc(Cl)c(Cl)c1 registered its GI50 at 53

For reference, reported GI50 for Cc1ccc(/C=C(\C#N)c2ccc(Cl)c(Cl)c2)cc1 stands at 1.6

Reported GI50 of N#C/C(=C\c1ccc[nH]1)c1ccc(F)cc1 : 31

---

- System: SW480
- protocol notes: Cytotoxicity against human SW480 cells after 72 hrs by MTT assay
- Type: functional
- assay context: SW480, 72 h
reported property: log10 of GI50 (log10 of the value in µM)
Please be aware that the numbers have been log10-transformed from GI50 in µM.

Summary line: N#C/C(=C\c1ccc(O)cc1)c1ccc(Cl)c(Cl)c1 , SW480, reported log10 of GI50 = 1.56

Bench note, SW480: entry CC(=O)Oc1ccc(/C=C(\C#N)c2ccc(Cl)c(Cl)c2)cc1 , its log10 of GI50 = 1.43

Short answer on SW480 for Cc1ccc(/C=C(\C#N)c2ccc(Cl)c(Cl)c2)cc1 , log10 of GI50: 0.36

log10 of GI50 value, target or system SW480, for N#C/C(=C\c1ccc[nH]1)c1ccccc1 : 1.41

log10 of GI50 for SW480 with input N#C/C(=C\c1cccc(Cl)c1)c1ccc(Cl)c(Cl)c1 equals 0.95

Entry N#C/C(=C\c1ccc[nH]1)c1ccc(Cl)c(Cl)c1 ; assay system SW480; log10 of GI50 recorded at 1.36

Considering N#C/C(=C/c1ccc(Cl)cc1)C(=O)c1ccc[nH]1 , its log10 of GI50 with SW480 was recorded as 1.83

Reported log10 of GI50 (SW480) for entry N#C/C(=C\c1ccc[nH]1)c1ccc(Cl)cc1 is 1.34

Sample Cc1ccc(/C=C(/C#N)C(=O)c2ccc[nH]2)cc1 , system: SW480. Its log10 of GI50 is 1.15

The observed log10 of GI50 for N#C/C(=C\c1cc(O)cc(O)c1)c1ccc(Cl)c(Cl)c1 when tested with SW480 stands at 1.95

N#C/C(=C\c1ccc[nH]1)c1ccc([N+](=O)[O-])cc1 on SW480 gives log10 of GI50 = 1.38

Query N#CC(Cc1ccc[nH]1)c1ccc(Cl)cc1 (stereo not given) on SW480; log10 of GI50 returned: 1.72

Observed log10 of GI50, SW480, N#C/C(=C\c1ccncc1)c1ccc(Cl)c(Cl)c1 : 1.26

Form field log10 of GI50 for item N#CC(Cc1ccc[nH]1)c1ccc(F)cc1 (stereo not given) on SW480: 1.89

Observed log10 of GI50 on SW480, entry N#C/C(=C\c1ccc[nH]1)c1ccc(F)cc1 , equals 1.38

N#C/C(=C\c1ccc2ccccc2c1)c1ccc(Cl)c(Cl)c1 tested on SW480 gave log10 of GI50: 0.36

Recorded log10 of GI50 for CCCC/C=C(\C#N)c1ccc(Cl)c(Cl)c1 on SW480 was 1.83

Value (log10 of GI50, SW480) for record N#C/C(=C\c1ccc(Br)cc1)c1ccc(Cl)c(Cl)c1 = 1.34

The compound N#CC(Cc1ccc[nH]1)c1ccc([N+](=O)[O-])cc1 (stereo not given) , tested on SW480, showed log10 of GI50 of 1.85

The reported SW480 log10 of GI50 of N#C/C(=C\c1ccc(Cl)cc1)c1ccc(Cl)c(Cl)c1 is 0.70

---

- protocol notes: Cytotoxicity against human MIA cells after 72 hrs by MTT assay
- Assay type: functional
reported property: GI50 (µM)
# output: bare number, implied unit µM

Consider N#C/C(=C\c1ccc([N+](=O)[O-])cc1)c1ccc(Cl)c(Cl)c1 . Its measured GI50 is 27

Value of GI50 reported for the molecule N#CC(Cc1ccc[nH]1)c1ccc(Cl)cc1 (stereo not drawn) is 58

Just so you know, measured GI50 for N#C/C(=C\c1ccc(O)cc1)c1ccc(Cl)c(Cl)c1 came out at 28

Cc1ccc(/C=C(\C#N)c2ccc(Cl)c(Cl)c2)cc1 yielded GI50 of 2

// recorded GI50 for N#C/C(=C\c1ccc(Cl)cc1)c1ccc(Cl)c(Cl)c1 : 4

Recorded result, N#CC(Cc1ccc[nH]1)c1ccc([N+](=O)[O-])cc1 (stereo not drawn) , GI50: 82

Lab note: measured GI50 of N#C/C(=C\c1ccc[nH]1)c1ccc(F)cc1 was 63

Quick note, GI50 for CC(=O)Oc1ccc(/C=C(\C#N)c2ccc(Cl)c(Cl)c2)cc1 landed at 38

For record N#C/C(=C\c1cccc(Cl)c1)c1ccc(Cl)c(Cl)c1 the listed GI50 is 15

The molecule identified as N#C/C(=C\c1ccncc1)c1ccc(Cl)c(Cl)c1 registered its GI50 at 22

get_value(item= N#CC(Cc1ccc[nH]1)c1ccc(F)cc1 (stereo not drawn) , readout=GI50) returns 90

The molecule identified as COc1ccc(/C=C(\C#N)c2ccc(Cl)c(Cl)c2)cc1 registered its GI50 at 0.7

Recorded result, N#C/C(=C/c1ccc(Cl)cc1)C(=O)c1ccc[nH]1 , GI50: 59

Measured GI50, N#C/C(=C\c1ccc[nH]1)c1ccc(Cl)c(Cl)c1 : 46

Recorded GI50 (molecule N#C/C(=C\c1ccc[nH]1)c1ccc(Cl)cc1 ): 38

Consider N#C/C(=C\c1ccc(Br)cc1)c1ccc(Cl)c(Cl)c1 . Its measured GI50 is 21

Form: molecule = N#C/C(=C\c1ccc(F)cc1)c1ccc(Cl)c(Cl)c1 ; GI50 = 11

Field GI50 (entry N#C/C(=C\c1ccc[nH]1)c1ccc([N+](=O)[O-])cc1 ) reads 34

Looking up CCCC/C=C(\C#N)c1ccc(Cl)c(Cl)c1 , I see its GI50 listed as 95

Data point: N#C/C(=C/c1ccc(O)cc1)C(=O)c1ccc[nH]1 ; GI50 = 11

So for N#C/C(=C\c1ccc2ccccc2c1)c1ccc(Cl)c(Cl)c1 , the logged GI50 turned out to be 2.1

Entry under test: Cc1ccc(/C=C(/C#N)C(=O)c2ccc[nH]2)cc1 . Its GI50 was 27

// sample N#C/C(=C\c1ccc[nH]1)c1ccccc1 , its GI50 was 81
